experiment: self-splicing fitness, log relative to wild type (ln ratio); higher = more splicing; Tetrahymena group I intron in knt gene, E. coli kanamycin selection, DiMSum; sequences stand for … in CUCUCU…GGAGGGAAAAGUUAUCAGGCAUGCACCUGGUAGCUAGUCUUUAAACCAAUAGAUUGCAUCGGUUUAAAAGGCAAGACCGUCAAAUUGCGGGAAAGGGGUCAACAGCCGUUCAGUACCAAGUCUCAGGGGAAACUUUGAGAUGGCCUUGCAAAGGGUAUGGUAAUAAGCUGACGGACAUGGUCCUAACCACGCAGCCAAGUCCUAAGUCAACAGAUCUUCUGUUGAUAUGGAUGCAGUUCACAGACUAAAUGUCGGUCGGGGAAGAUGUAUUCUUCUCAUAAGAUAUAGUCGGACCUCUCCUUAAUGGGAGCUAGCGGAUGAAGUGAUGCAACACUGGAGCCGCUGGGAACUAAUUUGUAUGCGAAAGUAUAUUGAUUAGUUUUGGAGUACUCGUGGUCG; conditions: 37 °C;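 note: selection with 25 µg/mL kanamycin versus none on LB agar overnight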
Kindly supply the reported self-splicing fitness (ln) values for the records listed here.

Ask: For the sequence shown here, "ACAGAGCAAUAUUACGGCAG" , give the reported self-splicing fitness (ln).
Reply: -2.45

Ask: For the sequence shown here, "CGUCAGCAAUAUUACGUUUU" , give the reported self-splicing fitness (ln).
Reply: -1.55

Ask: For the sequence shown here, "GGACAGCAAUAUUACGUCGC" , give the reported self-splicing fitness (ln).
Reply: 0.343

Ask: For the sequence shown here, "AGCUAGCAAUAUUACGGUUG" , give the reported self-splicing fitness (ln).
Reply: -1.37

Ask: For the sequence shown here, "CUAUAGCAAUAUUACGCAGA" , give the reported self-splicing fitness (ln).
Reply: -1.2

Ask: For the sequence shown here, "CAACAGCAAUAUUACGCCAG" , give the reported self-splicing fitness (ln).
Reply: -0.809

Ask: For the sequence shown here, "CCUCAGCAAUAUUACGGGGC" , give the reported self-splicing fitness (ln).
Reply: -2.98

----------
assay: self-splicing fitness, log relative to wild type (ln ratio); higher = more splicing; Tetrahymena group I intron in knt gene, E. coli kanamycin selection, DiMSum; sequences stand for … in CUCUCU…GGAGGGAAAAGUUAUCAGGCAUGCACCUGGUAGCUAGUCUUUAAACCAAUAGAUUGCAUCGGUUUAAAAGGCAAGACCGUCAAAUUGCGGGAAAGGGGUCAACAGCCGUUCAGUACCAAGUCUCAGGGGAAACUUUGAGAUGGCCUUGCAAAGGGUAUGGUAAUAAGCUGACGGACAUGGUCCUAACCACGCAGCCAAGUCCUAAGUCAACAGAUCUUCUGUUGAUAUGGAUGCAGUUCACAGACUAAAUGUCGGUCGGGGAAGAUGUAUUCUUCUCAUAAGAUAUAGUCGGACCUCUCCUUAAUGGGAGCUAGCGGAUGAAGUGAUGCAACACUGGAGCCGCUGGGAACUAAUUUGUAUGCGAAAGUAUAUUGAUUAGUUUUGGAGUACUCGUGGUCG; conditions: 37 °C
Everything with self-splicing fitness (ln) lower than -0.5 is FALSE; everything else, including exactly -0.5, is TRUE.

Ask: Reported self-splicing fitness (ln) at or above -0.5? "UCGAAGCAAUAUUACGAUUC"
Reply: FALSE

Ask: Reported self-splicing fitness (ln) at or above -0.5? "UACUAGCAAUAUUACGAUUG"
Reply: TRUE

Ask: Reported self-splicing fitness (ln) at or above -0.5? "ACAUAGCAAUAUUACGGCGU"
Reply: TRUE

Ask: Reported self-splicing fitness (ln) at or above -0.5? "GAUUAGCAAUAUUACGAAUC"
Reply: FALSE

Ask: Reported self-splicing fitness (ln) at or above -0.5? "AGGCAGCAAUAUUACGGCAC"
Reply: FALSE

Ask: Reported self-splicing fitness (ln) at or above -0.5? "AGCCAGCAAUAUUACGCCCA"
Reply: FALSE

Ask: Reported self-splicing fitness (ln) at or above -0.5? "AUUUAGCAAUAUUACGCUUG"
Reply: TRUE

Ask: Reported self-splicing fitness (ln) at or above -0.5? "GGCAAGCAAUAUUACGUACC"
Reply: TRUE

----------
test: self-splicing fitness, log relative to wild type (ln ratio); higher = more splicing; Tetrahymena group I intron in knt gene, E. coli kanamycin selection, DiMSum; sequences stand for … in CUCUCU…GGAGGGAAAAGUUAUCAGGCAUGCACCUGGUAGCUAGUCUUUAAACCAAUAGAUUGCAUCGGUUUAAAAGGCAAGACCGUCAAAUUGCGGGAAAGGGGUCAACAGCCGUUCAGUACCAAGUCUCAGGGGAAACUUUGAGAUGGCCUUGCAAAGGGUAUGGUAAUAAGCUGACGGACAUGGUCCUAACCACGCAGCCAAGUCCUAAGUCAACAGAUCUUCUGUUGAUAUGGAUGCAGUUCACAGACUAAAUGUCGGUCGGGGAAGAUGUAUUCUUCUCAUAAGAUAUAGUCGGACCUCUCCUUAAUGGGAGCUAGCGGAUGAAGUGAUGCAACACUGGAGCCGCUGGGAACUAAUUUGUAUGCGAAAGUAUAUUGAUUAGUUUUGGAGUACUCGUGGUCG; details: 37 °C
Observable: self-splicing fitness (ln)
Give the value as a plain number.

Ask: For the sequence shown here, "GAUGAGCAAUAUUACGGAUC" , give the reported self-splicing fitness (ln).
Reply: -1.78

Ask: For the sequence shown here, "GUGUAGCAAUAUUACGCGGU" , give the reported self-splicing fitness (ln).
Reply: -0.66

Ask: For the sequence shown here, "ACGUAGCAAUAUUACGUGUA" , give the reported self-splicing fitness (ln).
Reply: -2.2

Ask: For the sequence shown here, "AUUCAGCAAUAUUACGGUCA" , give the reported self-splicing fitness (ln).
Reply: -0.789

Ask: For the sequence shown here, "CAAGAGCAAUAUUACGAGAC" , give the reported self-splicing fitness (ln).
Reply: -1.93

Ask: For the sequence shown here, "UAAUAGCAAUAUUACGGGGG" , give the reported self-splicing fitness (ln).
Reply: -3.37

Ask: For the sequence shown here, "CUACAGCAAUAUUACGUUGA" , give the reported self-splicing fitness (ln).
Reply: -3.35
